# test_method_notes: in vivo
# Set-up: species or system Beagle Dogs
# experimental_setup: male, beagle, dog, po, 22 mg/kg, Plasma concentration of CH2107 (Molnupiravir)
measured_quantity: concentration at 2 hr (ng/mL)

CC(C)C(=O)OC[C@H]1O[C@@H](n2ccc(NO)nc2=O)[C@H](O)[C@@H]1O [Molnupiravir]    9.81

---

Collected half-life at 1 µM values appear next to each entry.
# test_method_notes: in vitro
# Type: in vitro ADME
# experimental_setup: monkey, plasma
# Protocol: Preparation of Solutions: Stock solution (10 mM) of each of test compounds was prepared in DMSO. The stock solution for each compound was then diluted into 100 μM with acetonitrile. Plasma Incubations: Plasma incubations were conducted in duplicate in 96-well plate at 37° C. […]
measured_quantity: half-life at 1 µM

CC(=O)ONc1ccn([C@@H]2O[C@H](CO)[C@@H](O)[C@H]2O)c(=O)n1    29.3 min
O=C(ONc1ccn([C@@H]2O[C@H](CO)[C@@H](O)[C@H]2O)c(=O)n1)C1CC1    16.5 min
CC(C)C(=O)OC[C@H]1O[C@@H](n2ccc(NO)nc2=O)[C@H](O)[C@@H]1O    25.8 min
CC(C)C(=O)ONc1ccn([C@@H]2O[C@H](CO)[C@@H](O)[C@H]2O)c(=O)n1    3.2 min
COC(C)(C)C(=O)ONc1ccn([C@@H]2O[C@H](CO)[C@@H](O)[C@H]2O)c(=O)n1    9.8 min

---

# test_method_notes: in vivo
# Design: species or system Beagle Dogs
# experimental_setup: male, beagle, dog, po, 22 mg/kg, Tmax of CH2107 (Molnupiravir)
measured_quantity: Tmax

CC(C)C(=O)OC[C@H]1O[C@@H](n2ccc(NO)nc2=O)[C@H](O)[C@@H]1O    15 min

---

# test_method_notes: in vivo
# Parameters: species or system Beagle Dogs
# experimental_setup: both sexes, beagle, dog, po, 22 mg/kg, Tmax of CH2107 (Molnupiravir)
measured_quantity: Tmax (min)

CC(C)C(=O)OC[C@H]1O[C@@H](n2ccc(NO)nc2=O)[C@H](O)[C@@H]1O    18.8

---

# test_method_notes: in vivo
# Set-up: species or system Beagle Dogs
# experimental_setup: male, Beagle, dog, po, 20 mg/kg, Cmax of EX-2/CH2101
measured_quantity: Cmax

CC(=O)ONc1ccn([C@@H]2O[C@H](CO)[C@@H](O)[C@H]2O)c(=O)n1    12.5 ng/mL

---

# test_method_notes: in vivo
# Set-up: species or system Beagle Dogs
# experimental_setup: male, beagle, dog, po, 10 mg/kg, Cmax of EX-1/NHC/CH2018
measured_quantity: Cmax (ng/mL)

O=c1nc(NO)ccn1[C@@H]1O[C@H](CO)[C@@H](O)[C@H]1O    5380

---

# test_method_notes: in vivo
# Parameters: species or system Beagle Dogs
# experimental_setup: female, beagle, dog, po, 10 mg/kg, Cmax of EX-2/CH2101
measured_quantity: Cmax (ng/mL)

CC(=O)ONc1ccn([C@@H]2O[C@H](CO)[C@@H](O)[C@H]2O)c(=O)n1    12.2

---

# test_method_notes: in vivo
# Parameters: species or system Beagle Dogs
# experimental_setup: male, beagle, dog, po, 22 mg/kg, Cmax of CH2107 (Molnupiravir)
measured_quantity: Cmax (µg/mL)

CC(C)C(=O)OC[C@H]1O[C@@H](n2ccc(NO)nc2=O)[C@H](O)[C@@H]1O    1.45

---

# test_method_notes: in vivo
# Set-up: species or system Beagle Dogs
# experimental_setup: both sexes, Beagle, dog, po, 20 mg/kg, Tmax of EX-2/CH2101
measured_quantity: Tmax (min)

CC(=O)ONc1ccn([C@@H]2O[C@H](CO)[C@@H](O)[C@H]2O)c(=O)n1 [EX-2]    15

---

# test_method_notes: in vivo
# Design: species or system Beagle Dogs
# experimental_setup: both sexes, beagle, dog, po, 10 mg/kg, AUCINF of EX-1/NHC/CH2018
measured_quantity: AUC(0-inf) (ng·h/mL)

O=c1nc(NO)ccn1[C@@H]1O[C@H](CO)[C@@H](O)[C@H]1O [EX-1/NHC/CH2018, NHC]    9680

---

# test_method_notes: in vivo
# Design: species or system Beagle Dogs
# experimental_setup: both sexes, beagle, dog, po, 10 mg/kg, Plasma concentration of EX-2/CH2101
measured_quantity: concentration at 0.5 hr (ng/mL)

CC(=O)ONc1ccn([C@@H]2O[C@H](CO)[C@@H](O)[C@H]2O)c(=O)n1 [EX-2]    10.7

---

# test_method_notes: in vivo
# Design: species or system Beagle Dogs
# experimental_setup: male, Beagle, dog, po, 22 mg/kg, AUCINF of CH2107 (Molnupiravir)
measured_quantity: AUC(0-inf) (ng·h/mL)

CC(C)C(=O)OC[C@H]1O[C@@H](n2ccc(NO)nc2=O)[C@H](O)[C@@H]1O    1100

---

# test_method_notes: in vivo
# Design: species or system Beagle Dogs
# experimental_setup: male, beagle, dog, po, 10 mg/kg, Plasma concentration of EX-2/CH2101
measured_quantity: concentration at 0.25 hr (ng/mL)

CC(=O)ONc1ccn([C@@H]2O[C@H](CO)[C@@H](O)[C@H]2O)c(=O)n1    17.9

---

# test_method_notes: in vivo
# Set-up: species or system Beagle Dogs
# experimental_setup: female, Beagle, dog, po, 20 mg/kg, Tmax of EX-2/CH2101
measured_quantity: Tmax (min)

CC(=O)ONc1ccn([C@@H]2O[C@H](CO)[C@@H](O)[C@H]2O)c(=O)n1 [EX-2]    15

---

# test_method_notes: in vivo
# Parameters: species or system Beagle Dogs
# experimental_setup: both sexes, Beagle, dog, po, 22 mg/kg, AUClast of CH2107 (Molnupiravir)
# Description: Example 174: Pharmacokinetic Study of EX-2 (CH2101), Molnupiravir (CH2017) and its Metabolite NHC (CH2018) Following a Single PO Administration of EX-2 (CH2101) or Molnupiravir (CH2017) in Male and Female Beagle Dogs Both test compounds were prepared in 1% methyl cellulose (400 cps, SIGMA, SLCF9694) solution in purified water. […]
measured_quantity: AUC(0-t) (ng·h/mL)

CC(C)C(=O)OC[C@H]1O[C@@H](n2ccc(NO)nc2=O)[C@H](O)[C@@H]1O    930

---

# test_method_notes: in vivo
# Set-up: species or system Beagle Dogs
# experimental_setup: male, beagle, dog, po, 22 mg/kg, Plasma concentration of CH2107 (Molnupiravir)
measured_quantity: concentration at 4 hr

CC(C)C(=O)OC[C@H]1O[C@@H](n2ccc(NO)nc2=O)[C@H](O)[C@@H]1O [Molnupiravir]    1.44 ng/mL

---

# test_method_notes: in vivo
# Set-up: species or system Beagle Dogs
# experimental_setup: both sexes, beagle, dog, po, 20 mg/kg, Plasma concentration of EX-2/CH2101
measured_quantity: concentration at 0.5 hr (ng/mL)

CC(=O)ONc1ccn([C@@H]2O[C@H](CO)[C@@H](O)[C@H]2O)c(=O)n1 [EX-2]    10.5

---

# test_method_notes: in vivo
# Design: species or system Beagle Dogs
# experimental_setup: both sexes, beagle, dog, po, 20 mg/kg, Plasma concentration of EX-2/CH2101
measured_quantity: concentration at 0.083 hr (ng/mL)

CC(=O)ONc1ccn([C@@H]2O[C@H](CO)[C@@H](O)[C@H]2O)c(=O)n1    11.2

---

# test_method_notes: in vivo
# Design: species or system Beagle Dogs
# experimental_setup: female, beagle, dog, po, 22 mg/kg, Plasma concentration of CH2107 (Molnupiravir)
measured_quantity: concentration at 6 hr (ng/mL)

CC(C)C(=O)OC[C@H]1O[C@@H](n2ccc(NO)nc2=O)[C@H](O)[C@@H]1O    5.45

---

# test_method_notes: in vivo
# Parameters: species or system Beagle Dogs
# experimental_setup: male, beagle, dog, po, 10 mg/kg, AUCINF of EX-1/NHC/CH2018
measured_quantity: AUC(0-inf) (ng·h/mL)

O=c1nc(NO)ccn1[C@@H]1O[C@H](CO)[C@@H](O)[C@H]1O    12700

---

# test_method_notes: in vitro
# Format: in vitro ADME
# experimental_setup: mouse, microsomes, pH 7.4
// reported half-life at 1 µM per item
measured_quantity: half-life at 1 µM (min)

CC(C)C(=O)OC[C@H]1O[C@@H](n2ccc(NO)nc2=O)[C@H](O)[C@@H]1O    5.6
CC(C)C(=O)ONc1ccn([C@@H]2O[C@H](CO)[C@@H](O)[C@H]2O)c(=O)n1    6.8
CC(=O)ONc1ccn([C@@H]2O[C@H](CO)[C@@H](O)[C@H]2O)c(=O)n1    16.2
COC(C)(C)C(=O)ONc1ccn([C@@H]2O[C@H](CO)[C@@H](O)[C@H]2O)c(=O)n1    17.1
O=C(ONc1ccn([C@@H]2O[C@H](CO)[C@@H](O)[C@H]2O)c(=O)n1)C1CC1    15.4
